System: PAF-induced Hypotension
Experiment: Inhibition of PAF-induced Hypotension in Normotensive Rats
Type: in vivo, male Sprague-Dawley rats
Settings: Rattus norvegicus, iv, 0.05 h; anesthetized normotensive rats; i.v. 3 min. before PAF (0.5 μg/Kg); dose inhibiting hypotension by 50%; read-out: ID50 (the source's name)
assay_endpoint: ED50 (mg/kg)
Supply the numeric figure in mg/kg, leaving out any unit text.

Answered cases to consult:
Cc1nc2cnccc2n1CC1CCN(C(=O)N[C@H](C)c2ccccc2)CC1 [Compound 50] :: 0.017
Cc1nc2cnccc2n1CC1CCN(C(=O)NC2(c3ccccc3)CC2)CC1 [Compound 59] :: 0.021

Qu. Report ED50 for Cc1nc2cnccc2n1CC1CCN(C(=O)CC(c2ccccc2)c2ccccc2)CC1 [Compound 1]
Ans. 0.0086
